# protocolText: qHTS assay to test for compound auto fluorescence at 535 nm (green) in HepG2 cell free culture (AID 720686)
# conditionParameters: Cell-free medium, green autofluorescence 485/535 nm; series mostly up to 46 µM
The source made the active and inactive calls. The call rests on the fitted dose curve; in most records, active means well fitted curve in the direction sought with a large enough effect in the repeat runs; inconclusive means weak or mixed curves; inactive means flat fitted curve, though single readings scatter.
readoutKind: outcome

[
  {
    "compound": "CC1CC(OC(=O)C(O)c2ccccc2)CC(C)(C)C1 (stereo not drawn)",
    "result": "inactive"
  },
  {
    "compound": "CC[C@H]1OC(=O)[C@H](C)[C@@H](O[C@H]2C[C@@](C)(OC)[C@@H](O)[C@H](C)O2)[C@H](C)[C@@H](O[C@@H]2O[C@H](C)C[C@H](N(C)C)[C@H]2O)[C@](C)(O)C[C@@H](C)[C@@H]2N[C@@H](COCCOC)O[C@@H]([C@H]2C)[C@]1(C)O",
    "result": "inactive"
  },
  {
    "compound": "CCC(=O)O[C@@H]1CC(=O)O[C@H](C)C/C=C/C=C/[C@H](O)[C@H](C)C[C@H](CC=O)[C@H](O[C@@H]2O[C@H](C)[C@@H](O[C@H]3C[C@@](C)(O)[C@@H](OC(=O)CC)[C@H](C)O3)[C@H](N(C)C)[C@H]2O)[C@H]1OC",
    "result": "inactive"
  }
]
